Data origin: ChEMBL document CHEMBL5214895

Experiment: Metabolic stability in human liver microsomes assessed as parent compound remaining at 2 uM incubated for 40 mins in presence of NADPH by LC-MS/MS analysis
Assay type: ADME, Microsome
Details: read-out: Stability
recorded.metric: remaining at 40 min, 2 µM (%)

INSERT INTO measurements (molecule, recorded_metric, reported_value) VALUES
  ('COc1ccc(/N=C(\N)CC(O)c2cc3c(F)cc(F)cc3c3cc(C(F)(F)F)ccc23)cc1.Cl (stereo unspecified)', 'remaining at 40 min, 2 µM', 86);

###

Test: Selectivity index, ratio of IC50 for cytotoxicity against human HepG2 cells to IC50 for antiplasmodial activity against chloroquine-sensitive asexual blood stage Plasmodium falciparum 3D7
Format: toxicity, cell-based
Conditions: read-out: Ratio IC50
# Criterion met = selectivity ratio below 20 (exclusive); Criterion not met = selectivity ratio at/above 20

INSERT INTO results (compound, answer_label) VALUES
  ('N=C(CC(O)c1cc2c(Cl)cc(Cl)cc2c2cc(C(F)(F)F)ccc12)NCCc1ccc(F)cc1 (stereo not given)', 'Criterion not met'),
  ('CC(C)(C)c1ccc(/N=C(\N)CC(O)c2ccc(C(C)(C)C)cc2)cc1 (stereo not given)', 'Criterion not met'),
  ('COc1ccc(/N=C(\N)CC(O)c2ccc(C(C)(C)C)cc2)cc1 (stereo not given)', 'Criterion met'),
  ('N=C(CC(O)c1cc2ccccc2c2ccccc12)NCCc1ccccc1 (stereo not given)', 'Criterion met'),
  ('N/C(CC(O)c1cc2c(Cl)cc(Cl)cc2c2cc(C(F)(F)F)ccc12)=N\OCc1ccc(F)cc1 (stereo not given)', 'Criterion not met');

###

Assay: Chemical stability of compound in Tween20/ethanol/phosphate buffer at pH 2 assessed as drug degradation measured over 24 hrs
Assay type: physicochemical
Conditions: read-out: Drug degradation
recorded.metric: degraded at 24 h (%)

INSERT INTO measurements (molecule, reported_value) VALUES
  ('COc1ccc(/N=C(\N)CC(O)c2cc3c(F)cc(F)cc3c3cc(C(F)(F)F)ccc23)cc1.Cl (stereo unspecified)', 0.1);

###

Assay: Cytotoxicity against HEK293 cells assessed as inhibition of cell growth incubated for 24 hrs by neutral red dye based analysis
Type: toxicity
Conditions: human
recorded.metric: IC50 at 24 h

INSERT INTO assay_data (molecule, recorded_metric, reported_value) VALUES
  ('Cl.N/C(CC(O)c1c2ccccc2cc2ccccc12)=N\c1ccc(F)cc1 (stereo not drawn)', 'IC50 at 24 h', '78.3 µM'),
  ('CCN(CC)CCCC(C)Nc1ccnc2cc(Cl)ccc12 (stereo not drawn) [CHLOROQUINE]', 'IC50 at 24 h', '> 1000 µM'),
  ('COc1ccc(/N=C(\N)CC(O)c2cc3c(F)cc(F)cc3c3cc(C(F)(F)F)ccc23)cc1.Cl (stereo not drawn)', 'IC50 at 24 h', '36.8 µM');

###

Recorded Activity values for a group of compounds are listed next.
Tested on: Plasmodium berghei
Assay: Antimalarial activity against Plasmodium berghei infected in mouse assessed as reduction in parasitemia in blood at 30 mg/kg, po administered for 4 times starting from 4 to 72 hrs and measured after 96 hrs post infection (reference value: 0%)
Type: functional
Design: scale not given: the % may be the effect or the level left
recorded.metric: Activity (%)

INSERT INTO measurements (compound, recorded_metric, measurement_unit, reported_value) VALUES
  ('CCN(CC)CCCC(C)Nc1ccnc2cc(Cl)ccc12 (stereo not given)', 'Activity', '%', 99.9),
  ('CCCCN(CCCC)CC(O)c1cc(Cl)cc2c1-c1ccc(Cl)cc1/C2=C/c1ccc(Cl)cc1 (stereo not given)', 'Activity', '%', 99.8),
  ('COc1ccc(/N=C(\N)CC(O)c2cc3c(F)cc(F)cc3c3cc(C(F)(F)F)ccc23)cc1.Cl (stereo not given)', 'Activity', '%', 99.9),
  ('C[C@H]1[C@H](OC(=O)CCC(=O)O)O[C@@H]2O[C@@]3(C)CC[C@H]4[C@H](C)CC[C@@H]1[C@@]24OO3 [ARTESUNATE]', 'Activity', '%', 99),
  ('N/C(CC(O)c1cc2c(F)cc(F)cc2c2cc(C(F)(F)F)ccc12)=N\N=C\c1ccc(F)cc1 (stereo not given)', 'Activity', '%', 99.4);

###

Test: Selectivity index, ratio of IC50 for cytotoxicity against human HeLa cells to IC50 for antiplasmodial activity against chloroquine-sensitive asexual blood stage Plasmodium falciparum 3D7
Type: toxicity, cell-based
Conditions: read-out: Ratio IC50
recorded.metric: selectivity ratio

INSERT INTO results (compound, reported_value) VALUES
  ('Cl.N/C(CC(O)c1c2ccccc2cc2ccccc12)=N\c1ccc(F)cc1 (stereo unspecified)', 25400);

###

Target: Voltage-gated inwardly rectifying potassium channel KCNH2 (Homo sapiens)
Sequence (Q12809 whole entry): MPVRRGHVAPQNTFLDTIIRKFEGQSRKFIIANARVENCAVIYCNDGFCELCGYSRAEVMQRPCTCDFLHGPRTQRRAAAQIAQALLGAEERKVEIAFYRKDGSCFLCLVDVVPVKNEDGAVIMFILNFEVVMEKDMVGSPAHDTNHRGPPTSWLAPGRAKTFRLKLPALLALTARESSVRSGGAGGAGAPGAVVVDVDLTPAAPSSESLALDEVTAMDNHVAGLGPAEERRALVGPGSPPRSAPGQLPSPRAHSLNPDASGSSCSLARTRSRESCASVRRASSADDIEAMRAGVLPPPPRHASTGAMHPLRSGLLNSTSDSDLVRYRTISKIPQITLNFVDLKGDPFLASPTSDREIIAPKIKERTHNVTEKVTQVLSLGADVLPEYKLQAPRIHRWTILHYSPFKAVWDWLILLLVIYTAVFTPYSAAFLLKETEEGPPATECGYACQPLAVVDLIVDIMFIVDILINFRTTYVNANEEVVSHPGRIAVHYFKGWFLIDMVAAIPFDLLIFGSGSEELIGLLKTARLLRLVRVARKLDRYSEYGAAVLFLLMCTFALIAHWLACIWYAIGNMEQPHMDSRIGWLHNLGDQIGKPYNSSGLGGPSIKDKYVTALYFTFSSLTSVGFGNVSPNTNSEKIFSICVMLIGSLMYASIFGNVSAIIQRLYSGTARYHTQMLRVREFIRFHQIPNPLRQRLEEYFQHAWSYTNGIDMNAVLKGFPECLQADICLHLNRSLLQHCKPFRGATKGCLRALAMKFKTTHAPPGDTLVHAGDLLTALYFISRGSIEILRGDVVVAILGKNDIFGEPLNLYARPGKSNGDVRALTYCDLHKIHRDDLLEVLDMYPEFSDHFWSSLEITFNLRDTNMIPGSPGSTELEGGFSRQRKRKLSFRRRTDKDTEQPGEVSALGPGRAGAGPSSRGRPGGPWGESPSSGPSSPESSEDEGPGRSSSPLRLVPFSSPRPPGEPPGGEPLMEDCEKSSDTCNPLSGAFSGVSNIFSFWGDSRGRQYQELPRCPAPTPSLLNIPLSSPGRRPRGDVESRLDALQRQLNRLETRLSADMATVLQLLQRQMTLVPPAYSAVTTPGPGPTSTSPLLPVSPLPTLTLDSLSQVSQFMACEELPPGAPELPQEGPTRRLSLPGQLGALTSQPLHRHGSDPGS
pIC50: −log10 of the molar value.
recorded.metric: pIC50

INSERT INTO measurements (compound, study_target, reported_value) VALUES
  ('COc1ccc(/N=C(\N)CC(O)c2cc3c(F)cc(F)cc3c3cc(C(F)(F)F)ccc23)cc1.Cl (stereo unspecified)', 'Voltage-gated inwardly rectifying potassium channel KCNH2 (Homo sapiens)', 6.72);

###

Assay: Elimination half life in mouse infected with Plasmodium berghei at 10 mg/kg, po administered as single dose and measured for 24 hrs by LC-MS/MS analysis
Assay type: ADME, organism-based
Settings: in vivo, read-out: beta t1/2 (converted)
recorded.metric: half-life (min)

INSERT INTO results (compound, reported_value) VALUES
  ('COc1ccc(/N=C(\N)CC(O)c2cc3c(F)cc(F)cc3c3cc(C(F)(F)F)ccc23)cc1.Cl (stereo unspecified)', 7.91);

###

Test: Cytotoxicity against human HepG2 cells assessed as inhibition of cell growth incubated for 24 hrs by neutral red dye based analysis
Format: toxicity
// classify: if (IC50 at 24 h < 8 µM) t else f

INSERT INTO assay_data (compound, answer_label) VALUES
  ('COc1ccc(/N=C(\N)CC(O)c2ccc(C(C)(C)C)cc2)cc1 (centres undefined)', 'f'),
  ('N/C(CC(O)c1cc2ccccc2c2ccccc12)=N\c1ccc(F)cc1 (centres undefined)', 'f'),
  ('CCN(CC)Cc1cc(/N=C(\N)CC(O)c2cc3ccccc3c3ccccc23)ccc1O (centres undefined)', 'f'),
  ('N/C(CC(O)c1cc2ccccc2c2ccccc12)=N\CCc1ccccn1 (centres undefined)', 'f'),
  ('N=C(CC(O)c1cc2c(Cl)cc(Cl)cc2c2cc(C(F)(F)F)ccc12)NCCc1ccc(F)cc1 (centres undefined)', 't'),
  ('COc1ccc(CC/N=C(\N)CC(O)c2cc3ccccc3c3ccccc23)cc1 (centres undefined)', 'f'),
  ('N=C(CC(O)c1cc2ccccc2c2ccccc12)NCc1ccccc1 (centres undefined)', 'f'),
  ('N/C(CC(O)c1ccnc2ccccc12)=N\c1ccc(F)cc1 (centres undefined)', 'f'),
  ('N=C(CC(O)c1cc2ccccc2c2ccccc12)NCc1ccc(F)cc1 (centres undefined)', 'f'),
  ('COc1ccc(/N=C(\N)CC(O)c2cc3c(F)cc(F)cc3c3cc(C(F)(F)F)ccc23)cc1.Cl (centres undefined)', 't'),
  ('CC(C)(C)c1ccc(C(O)C/C(N)=N/c2ccc(F)cc2)cc1 (centres undefined)', 'f'),
  ('N/C(CC(O)c1cc2c(Cl)cc(Cl)cc2c2cc(C(F)(F)F)ccc12)=N\N1CCCCC1 (centres undefined)', 'f'),
  ('COc1ccc2nccc(C(O)C/C(N)=N/c3ccc(F)cc3)c2c1 (centres undefined)', 'f'),
  ('N=C(CC(O)c1cc2ccccc2c2ccccc12)NCCc1ccccc1 (centres undefined)', 't'),
  ('N=C(CC(O)c1cc2ccccc2c2ccccc12)NCCc1ccc(F)cc1 (centres undefined)', 't'),
  ('Cl.N/C(CC(O)c1c2ccccc2cc2ccccc12)=N\c1ccc(F)cc1 (centres undefined)', 't'),
  ('CC(C)(C)c1ccc(/N=C(\N)CC(O)c2ccc(C(C)(C)C)cc2)cc1 (centres undefined)', 'f'),
  ('N/C(CC(O)c1cc2c(Cl)cc(Cl)cc2c2cc(C(F)(F)F)ccc12)=N\OCc1ccc(F)cc1 (centres undefined)', 'f'),
  ('CCCCN(CCCC)CC(O)c1cc(Cl)cc2c1-c1ccc(Cl)cc1/C2=C/c1ccc(Cl)cc1 (centres undefined)', 'f');

###

Assay: Selectivity index, ratio of IC50 for cytotoxicity against human HepG2 cells to IC50 for antiplasmodial activity against chloroquine-sensitive asexual blood stage Plasmodium falciparum 3D7
Type: toxicity, cell-based
Conditions: read-out: Ratio IC50
selectivity ratio reference
recorded.metric: selectivity ratio

INSERT INTO assay_data (molecule, recorded_metric, relation_symbol, reported_value) VALUES
  ('N=C(CC(O)c1cc2ccccc2c2ccccc12)NCc1ccccc1 (stereo not given)', 'selectivity ratio', '=', 27),
  ('CC(C)(C)c1ccc(C(O)C/C(N)=N/c2ccc(F)cc2)cc1 (stereo not given)', 'selectivity ratio', '=', 38),
  ('CCCCN(CCCC)CC(O)c1cc(Cl)cc2c1-c1ccc(Cl)cc1/C2=C/c1ccc(Cl)cc1 (stereo not given)', 'selectivity ratio', '=', 20),
  ('N=C(CC(O)c1cc2ccccc2c2ccccc12)NCc1ccc(F)cc1 (stereo not given)', 'selectivity ratio', '=', 9),
  ('N/C(CC(O)c1ccnc2ccccc12)=N\c1ccc(F)cc1 (stereo not given)', 'selectivity ratio', '>', 200),
  ('COc1ccc(/N=C(\N)CC(O)c2cc3c(F)cc(F)cc3c3cc(C(F)(F)F)ccc23)cc1.Cl (stereo not given)', 'selectivity ratio', '=', 860),
  ('N=C(CC(O)c1cc2ccccc2c2ccccc12)NCCc1ccc(F)cc1 (stereo not given)', 'selectivity ratio', '=', 16),
  ('COc1ccc(CC/N=C(\N)CC(O)c2cc3ccccc3c3ccccc23)cc1 (stereo not given)', 'selectivity ratio', '=', 129),
  ('CCN(CC)Cc1cc(/N=C(\N)CC(O)c2cc3ccccc3c3ccccc23)ccc1O (stereo not given)', 'selectivity ratio', '=', 304),
  ('N/C(CC(O)c1cc2c(Cl)cc(Cl)cc2c2cc(C(F)(F)F)ccc12)=N\N1CCCCC1 (stereo not given)', 'selectivity ratio', '=', 1190);
